test: Cellular toxicity in uninfected CEM cells, XTT (TC50); conditions: human, uninfected CEM cells (lymphocyte derived)
Listing of recorded CC50 by entry.
recordedEndpoint: CC50

Cc1cc(SC2=C(O)CC(CCc3ccco3)(C(C)C)OC2=O)c(C(C)(C)C)cc1CO (stereo not drawn) [Example 5]	190 µM
Cc1cc(SC2=C(O)CC(CCc3csc(C(C)C)n3)(C(C)C)OC2=O)c(C(C)(C)C)cc1CO (racemic) [Example 32]	91 µM
CC(C)[C@]1(CCc2ccccc2)CC(O)=C(Sc2cc3sc(N)nc3cc2C(C)(C)C)C(=O)O1 [Example 13]	42 µM
CC(C)c1cc2ncsc2cc1SC1=C(O)C[C@@](CCc2ccc(O)cc2)(C(C)C)OC1=O [Example 48]	29 µM
Cc1cc(SC2=C(O)CC(CCc3nccs3)(C(C)C)OC2=O)c(C(C)(C)C)cc1CO (stereo not drawn) [Example 25]	216 µM
Cc1cc(SC2=C(O)CC(CCc3ccsc3)(C(C)C)OC2=O)c(C(C)(C)C)cc1N (racemic) [Example 35]	72 µM

---

test system: uninfected CEM cells; assay: Cellular toxicity in uninfected CEM cells, XTT (TC50); conditions: read-out: Antiviral Efficacy TC50; uninfected CEM cells
recordedEndpoint: CC50 (µM)

Cc1cc(SC2=C(O)CC(CCc3cc[nH]n3)(C(C)C)OC2=O)c(C(C)(C)C)cc1N (stereo not shown) [Example 41]	195

---

assay: Mouse blood levels after oral dosing; type: in vivo, Charles River CD-1 mice; conditions: CD-1, mouse, plasma; mice, oral dose of 25 mg/kg; read-out: Cmax (maximum concentration reached within the plasma)
Exam item: assign Met to entries whose Cmax is below 40 µM and Not met to entries at or above 40 µM. Note that a value of exactly 40 µM receives Not met.

Cc1cc(SC2=C(O)CC(CCc3nccs3)(C(C)C)OC2=O)c(C(C)(C)C)cc1CO (stereo not drawn) [Example 25]	Met
Cc1cc(SC2=C(O)CC(CCc3ccoc3)(C(C)C)OC2=O)c(C(C)(C)C)cc1CO (stereo not drawn) [Example 4]	Not met
Cc1cc(SC2=C(O)CC(CCc3ccc(N)cc3)(C(C)C)OC2=O)c(C(C)(C)C)cc1CO (stereo not drawn) [Reference Agent 1, reference compound]	Met
Cc1cc(SC2=C(O)CC(CCc3ccc(O)cc3)(C(C)C)OC2=O)c(C(C)(C)C)cc1CO (stereo not drawn) [Reference Agent 2, reference compound]	Met
Cc1cc(SC2=C(O)C[C@@](CCc3ccsc3)(C(C)C)OC2=O)c(C(C)(C)C)cc1CO [Example 12]	Not met

---

Property: Cmax; scope: individual compounds
test: Dog blood levels after oral dosing; type: in vivo; conditions: plasma, dogs, oral dose of 10 mg/kg
recordedEndpoint: Cmax (µM)

Cc1cc(SC2=C(O)CC(CCc3ccc(N)cc3)(C(C)C)OC2=O)c(C(C)(C)C)cc1CO (stereo not drawn) [Reference Agent 1, reference compound]	140
Cc1cc(SC2=C(O)CC(CCc3ccc(O)cc3)(C(C)C)OC2=O)c(C(C)(C)C)cc1CO (stereo not drawn) [Reference Agent 2, reference compound]	40
Cc1cc(SC2=C(O)C[C@@](CCc3ccsc3)(C(C)C)OC2=O)c(C(C)(C)C)cc1CO [Example 12]	149

---

assay: Rat blood levels after oral dosing; type: in vivo; settings: male, plasma, rats, oral dose of 10 mg/kg, read-out: Cmax (maximum concentration reached within the plasma)
Below, each of the compounds is paired with its reported Cmax value.
recordedEndpoint: Cmax (µM)

Cc1cc(SC2=C(O)CC(CCc3nccs3)(C(C)C)OC2=O)c(C(C)(C)C)cc1CO (centres unmarked)	6
Cc1cc(SC2=C(O)CC(CCc3ccc(N)cc3)(C(C)C)OC2=O)c(C(C)(C)C)cc1CO (centres unmarked) [Reference Agent 1, reference compound]	16
Cc1cc(SC2=C(O)C[C@@](CCc3ccsc3)(C(C)C)OC2=O)c(C(C)(C)C)cc1CO	30
Cc1cc(SC2=C(O)CC(CCc3ccc(O)cc3)(C(C)C)OC2=O)c(C(C)(C)C)cc1CO (centres unmarked) [Reference Agent 2, reference compound]	3.4
CC(C)[C@]1(CCc2ccccc2)CC(O)=C(Sc2cc3sc(N)nc3cc2C(C)(C)C)C(=O)O1	5.1

---

Test system: HIV infected lymphocyte derived CEM cells
Test: Cellular infection assay in CEM cells, XTT cytopathic procedure (EC50)
Details: CEM cells; TC50/EC50
Procedure: Compound concentrations were 0.32, 1, 3.2, 10, 32, and 100 uM.
Reported TI (therapeutic index, TC50/EC50) is given for each of the following molecules.
recordedEndpoint: TI (therapeutic index, TC50/EC50)

Cc1cc(SC2=C(O)C[C@@](CCc3ccccc3)(C(C)C)OC2=O)c(C(C)C)c2sc(N)nc12 [Example 17]	16
Cc1cc(SC2=C(O)CC(CCc3csc(C(C)C)n3)(C(C)C)OC2=O)c(C(C)(C)C)cc1CO (racemic) [Example 32]	4
Cc1cc(SC2=C(O)CC(CCc3ccc(CO)s3)(C(C)C)OC2=O)c(C(C)(C)C)cc1N (racemic) [Example 38]	113
Cc1cc(SC2=C(O)CC(CCc3cc[nH]n3)(C(C)C)OC2=O)c(C(C)(C)C)cc1N (stereo not shown) [Example 41]	10
Cc1cc(SC2=C(O)CC(CCc3ccsc3)(C(C)C)OC2=O)c(C(C)(C)C)cc1N (racemic) [Example 35]	48
CC(C)c1cc2ncsc2cc1SC1=C(O)C[C@@](CCc2ccc(O)cc2)(C(C)C)OC1=O [Example 48]	78

---

tested on: HIV infected lymphocyte derived CEM cells; test: Cellular infection assay in CEM cells, XTT cytopathic procedure (EC50); conditions: Human immunodeficiency virus 1, CCRF-CEM, read-out: Antiviral Efficacy EC50
Measured log10(EC50), listed per entry.
recordedEndpoint: log10(EC50) (log10 of the value in nM)

Cc1cc(SC2=C(O)CC(CCc3ccc4[nH]ccc4c3)(C(C)C)OC2=O)c(C(C)(C)C)cc1CO (racemic) [Example 61]	2.83
Cc1cc(SC2=C(O)CC(CCc3ccc(N)cc3)(C(C)C)OC2=O)c(C(C)(C)C)cc1CO (stereo not shown) [Reference Agent 1, reference compound]	2.70
CC(C)C1(CCc2ccccc2CO)CC(O)=C(Sc2sc3ccccc3c2C(C)(C)C)C(=O)O1 (stereo not shown) [Example 22]	3.18
Cc1cc(SC2=C(O)CC(CCc3ccsc3)(C(C)C)OC2=O)c(C(C)(C)C)cc1NS(=O)(=O)c1ccc(C(F)(F)F)cn1 (racemic) [Example 59]	2.78
Cc1cc(SC2=C(O)CC(CCc3ccc(CO)s3)(C(C)C)OC2=O)c(C(C)(C)C)cc1N (racemic) [Example 38]	3.04
Cc1cc(SC2=C(O)CC(CCc3scnc3C(C)C)(C(C)C)OC2=O)c(C(C)(C)C)cc1CO (racemic) [Example 33]	3.15
Cc1cc(SC2=C(O)CC(CCc3cc[nH]n3)(C(C)C)OC2=O)c(C(C)(C)C)cc1CO (racemic) [Example 40]	3.75

---

biological target: Recombinant HIV-1 protease (Human immunodeficiency virus type 1 group M subtype B); construct: Recombinant HIV-1 protease (>96% purity); purchased Bachem Bioscience, Inc. (King of Prussia, Pa.); test: HIV protease assay (Ki determination, HPLC readout of substrate III cleavage); assay type: biochemical
Binary call on Ki with cut-off 0.3 nM: strictly below means yes (1), and equality or higher means no (0).

CC(C)[C@]1(CCc2ccccc2)CC(O)=C(Sc2cc3cc[nH]c3cc2C(C)(C)C)C(=O)O1 [Example 73]	no (0)
Cc1cc(SC2=C(O)CC(CCc3ccc(CO)s3)(C(C)C)OC2=O)c(C(C)(C)C)cc1N (racemic) [Example 38]	no (0)
CC(C)C1(CCc2ccsc2)CC(O)=C(Sc2cc3sc(N)nc3cc2C(C)(C)C)C(=O)O1 (racemic) [Example 82]	no (0)
CC(C)[C@]1(CCc2ccccc2)CC(O)=C(Sc2cc3sc(NS(C)(=O)=O)nc3cc2C(C)(C)C)C(=O)O1 [Example 79]	no (0)
Cc1cc(SC2=C(O)CC(CCc3sccc3C)(C(C)C)OC2=O)c(C(C)(C)C)cc1N (racemic) [Example 65]	no (0)
Cc1cnc(CCC2(C(C)C)CC(O)=C(Sc3cc(C)c(CO)cc3C(C)(C)C)C(=O)O2)s1 (racemic) [Example 28]	yes (1)

---

Entries and their half-life values follow.
assay: Mouse blood levels after oral dosing; assay type: in vivo, Charles River CD-1 mice; settings: CD-1, mouse, plasma; mice, oral dose of 25 mg/kg; read-out: T 1/2 (half life) (converted)
recordedEndpoint: half-life (h)

Cc1cc(SC2=C(O)C[C@@](CCc3ccsc3)(C(C)C)OC2=O)c(C(C)(C)C)cc1CO [Example 12]	9.5
Cc1cc(SC2=C(O)CC(CCc3ccoc3)(C(C)C)OC2=O)c(C(C)(C)C)cc1CO (stereo not drawn) [Example 4]	5.6
Cc1cc(SC2=C(O)CC(CCc3nccs3)(C(C)C)OC2=O)c(C(C)(C)C)cc1CO (stereo not drawn) [Example 25]	3.3
Cc1cc(SC2=C(O)CC(CCc3ccsc3)(C(C)C)OC2=O)c(C(C)(C)C)cc1CO (stereo not drawn) [Example 7]	3.5
Cc1cc(SC2=C(O)CC(CCc3ccc(O)cc3)(C(C)C)OC2=O)c(C(C)(C)C)cc1CO (stereo not drawn) [Reference Agent 2, reference compound]	2
Cc1cc(SC2=C(O)CC(CCc3ccc(N)cc3)(C(C)C)OC2=O)c(C(C)(C)C)cc1CO (stereo not drawn) [Reference Agent 1, reference compound]	2.2
